Test system: Fibrinogen (Alexa647-labelled)
Assay: Alexa647-fibrinogen binding to printed small molecules – biochemical, small-molecule microarray, 635/667 nm fluorescence, artefact control for SMM control-protein annotation, profiling panel (AID 1131);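 also: z-score merges 667 nm fluorescence with per-spot signal-to-noise over triplicate slides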
Settings: fibrinogen-A647 binding fluorescence, higher = more signal
Decide by composite z-score: equal to or exceeding 0.4 means 1, less means -1.

- compound: "C[N+](C)(C)CCCC[C@@H]1NC(=O)[C@H]2C[C@@H](C(=O)NCCCCCCN)[C@@H](c3cccc(OCCO)c3)N2C1=O"
  experimental.target: "Fibrinogen (Alexa647-labelled)"
  category: 1
- compound: "C=C(/C(=C/C[C@@H](OC(=O)c1ccncc1)c1cccc(OCCO)c1)c1cc(C(=O)OC)ccc1OC)C(C)C"
  experimental.target: "Fibrinogen (Alexa647-labelled)"
  category: -1
- compound: "COC(=O)[C@@]1(Cc2ccc(OC)cc2)[C@H]2c3cc(C(=O)N4CCCC4)n(Cc4ccc(C)o4)c3C[C@H]2CN1C(=O)c1ccccc1"
  experimental.target: "Fibrinogen (Alexa647-labelled)"
  category: -1
- compound: "O=C1NC(=O)C2C1C=CC(C(O)c1ccc3c(c1)OCO3)N2Nc1ccc(Cl)cc1Cl (centres undefined)"
  experimental.target: "Fibrinogen (Alexa647-labelled)"
  category: -1
- compound: "COC(=O)[C@]1(Cc2ccccc2CN=[N+]=[N-])N=C(c2ccc(OCCCO)cc2)O[C@@H]1c1ccccc1CN=[N+]=[N-]"
  experimental.target: "Fibrinogen (Alexa647-labelled)"
  category: 1
- compound: "COCCOC(=O)N1C(=O)[C@@]2(c3cc(C#Cc4ccc(OC)cc4)ccc31)[C@H](c1ccc(OCCO)cc1)N1[C@H](c3ccccc3)[C@H](c3ccccc3)OC(=O)[C@H]1[C@@H]2C(N)=O"
  experimental.target: "Fibrinogen (Alexa647-labelled)"
  category: 1
- compound: "[N-]=[N+]=NCc1ccccc1C[C@]1(C(=O)NCCN2CCOCC2)COC(c2ccc(OCCCO)cc2)=N1"
  experimental.target: "Fibrinogen (Alexa647-labelled)"
  category: 1
- compound: "[N-]=[N+]=NCc1ccccc1[C@H]1OC(c2ccc(OCCCO)cc2)=N[C@@]1(Cc1ccccc1)C(N)=O"
  experimental.target: "Fibrinogen (Alexa647-labelled)"
  category: 1
- compound: "O=C(NCc1ccccc1)[C@]1(Cc2ccccc2)N=C(c2ccc(OCCCO)cc2)O[C@@H]1c1ccccc1"
  experimental.target: "Fibrinogen (Alexa647-labelled)"
  category: 1

====

Molecular target: Left-right determination factor 2 (Homo sapiens) (UniProt O00292)
Sequence (O00292 whole entry, looked up): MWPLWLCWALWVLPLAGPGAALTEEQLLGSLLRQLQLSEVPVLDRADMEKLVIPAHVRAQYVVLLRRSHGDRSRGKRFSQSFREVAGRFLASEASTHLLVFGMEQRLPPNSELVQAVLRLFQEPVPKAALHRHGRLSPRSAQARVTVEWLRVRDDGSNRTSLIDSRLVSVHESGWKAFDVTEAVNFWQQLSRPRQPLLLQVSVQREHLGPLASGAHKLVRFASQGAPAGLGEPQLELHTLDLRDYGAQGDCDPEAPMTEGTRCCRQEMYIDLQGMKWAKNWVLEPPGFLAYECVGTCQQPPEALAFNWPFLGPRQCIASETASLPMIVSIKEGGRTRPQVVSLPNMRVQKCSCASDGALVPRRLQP
Test: small molecules binding LEFTY2 protein – biochemical, small-molecule microarray, 635 nm fluorescence scan, primary screen (AID 1110)
Conditions: higher = more signal
value.kind: composite z-score

- compound: "O=C1O[C@H](c2ccccc2)[C@H](c2ccccc2)N2[C@H]1[C@@H](C(=O)N1CCN(c3ncccn3)CC1)[C@]1(C(=O)Nc3ccc(C#CCCO)cc31)[C@H]2c1ccccc1OCCO"
  result.value: 0.708
- compound: "CC[C@@H]1[C@@H]2C3C(=O)N(CC)C(=O)C3CC(=O)[C@@H]2[C@H](c2ccc(C)cc2)N1S(=O)(=O)c1ccc(C)cc1 (stereo partly specified)"
  result.value: 0.336
- compound: "COCCCNC(=O)[C@]1(CCS(=O)(=O)c2ccccc2)N=C(c2ccc(OCCCO)cc2)O[C@@H]1c1ccccc1"
  result.value: 0.494
- compound: "C[N+](C)(C)CCCC[C@@H]1NC(=O)[C@H]2C[C@@H](C(=O)NCCCCCCN)[C@@H](c3cccc(OCCO)c3)N2C1=O"
  result.value: 1.39
- compound: "C=CC[C@]1(C(=O)N(C)C)N=C(c2ccc(OCCCO)cc2)O[C@H]1c1ccccc1"
  result.value: -0.309
- compound: "CCCCCCCCCCC(O)C1C=CC2C(=O)NC(=O)C2N1Nc1ccccn1 (stereo unspecified)"
  result.value: -0.765

====

Test: forskolin-driven CRE-LacZ activity in PC12 – cell-based, CRE-LacZ reporter, forskolin-stimulated, primary screen (AID 1146);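 also: PC12 cells with 6xCRE LacZ reporter stimulated by forskolin 10 µM; beta-galactosidase reporter signal reflecting CREB driven transcription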
Details: luminescence, 4.5 h, called active from +8 up or from −8 down
The source made the active and inactive calls.
Classes used: active, inactive

- compound: "C=C(CCCC)/C(=C/C[C@H](OC(=O)c1ccncc1)c1ccc(CO)o1)c1cc(C(=O)OC)ccc1OC"
  category: "inactive"
- compound: "CN(C)C(=O)[C@@]1(Cc2ccccc2N=[N+]=[N-])N=C(c2ccc(OCCCO)cc2)O[C@H]1c1ccccc1N=[N+]=[N-]"
  category: "inactive"
- compound: "C=CCC(OC(C)=O)[C@@H]1[C@@H](N(Cc2cccc3ccccc23)C(=O)c2ccc(C)cc2)c2cc(OCCCO)ccc2N1C(=O)c1ccc2ccccc2c1 (some centres not stated)"
  category: "inactive"
- compound: "Cc1ccc(F)cc1S(=O)(=O)N[C@@H]1CCN(C(=O)c2ccc(OC(C)C)cc2)C1"
  category: "inactive"
- compound: "O=C1c2ccccc2C(=O)C2CC([C@H]3Oc4ccccc4S(=O)(=O)N4CCC[C@@H]34)=CCC12 (some centres not stated)"
  category: "inactive"
- compound: "COCCOC(=O)N1C(=O)[C@@]2(c3cc(C#CCC(C(=O)OC)C(=O)OC)ccc31)[C@H](c1ccc(OCCO)cc1)N1[C@H](c3ccccc3)[C@H](c3ccccc3)OC(=O)[C@H]1[C@@H]2C(N)=O"
  category: "inactive"
- compound: "COC(=O)c1c(CC[C@@H](CO)NC(=O)N[C@@H](C)Cn2cc(C3(O)CCCC3)nn2)oc(C(C)=O)c1C(=O)OC"
  category: "inactive"
- compound: "COCCOC(=O)N1C(=O)[C@@]2(c3cc(C#CCNC(N)=O)ccc31)[C@H](c1ccc(OCCO)cc1)N1[C@H](c3ccccc3)[C@H](c3ccccc3)OC(=O)[C@H]1[C@@H]2C(=O)N1CCN(c2ncccn2)CC1"
  category: "inactive"
- compound: "COCCCNC(=O)[C@]1(Cc2ccccc2)N=C(c2ccc(OCCCO)cc2)O[C@@H]1c1ccccc1N=[N+]=[N-]"
  category: "inactive"
- compound: "O=[N+]([O-])c1ccc(C[n+]2ccc(-c3ccc(CO)cc3)cc2)o1"
  category: "inactive"
- compound: "CCCC=C(CCC)[C@@H](NS(=O)(=O)c1ccccc1)c1ccc(C(F)(F)F)cc1"
  category: "inactive"
- compound: "O=C(Nc1cc(Br)ccc1C(=O)NCc1cccc(O)c1)c1ccccc1"
  category: "inactive"
- compound: "COC(=O)[C@@]1(Cc2ccccc2)[C@H]2c3cc(C(=O)N(C)C)n(Cc4ccc(O)c(OC)c4)c3C[C@H]2CN1C(=O)c1ccccc1"
  category: "inactive"
- compound: "COCCOC(=O)N1C(=O)[C@@]2(c3ccccc31)[C@H](c1ccc(OCCO)cc1)N1[C@H](c3ccccc3)[C@H](c3ccccc3)OC(=O)[C@H]1[C@@H]2C(=O)NC[C@H](O)c1ccccc1"
  category: "active"
- compound: "[N-]=[N+]=Nc1ccccc1C[C@]1(C(=O)NCCN2CCOCC2)N=C(c2ccc(OCCCO)cc2)O[C@H]1c1ccccc1N=[N+]=[N-]"
  category: "inactive"
- compound: "O=C(O)[C@@]1(Cc2ccccc2)COC(c2ccc(OCCCO)cc2)=N1"
  category: "inactive"
- compound: "CC(C)CN1C(=O)[C@@]2(Cc3ccccc31)c1ccccc1C(=O)N(Cc1ccccc1)[C@H]2c1ccc(CO)cc1"
  category: "inactive"
- compound: "CN(C)CCCCCCNC(=O)[C@@H]1C[C@@H]2C(=O)NCC(=O)N2[C@@H]1c1ccc(O)cc1"
  category: "inactive"
- compound: "Cc1ccccc1C(O)C1C=CC2C(=O)N(C)C(=O)C2N1Nc1ccc([N+](=O)[O-])cc1[N+](=O)[O-] (configuration not stated)"
  category: "inactive"
- compound: "O=C1C2C=CC(C(O)c3ccc(Br)cc3)N(Nc3ccccc3)C2C(=O)N1c1ccccc1 (configuration not stated)"
  category: "inactive"
- compound: "COC(=O)[C@@]1(Cc2ccc(OC)cc2)[C@H]2c3cc(C(=O)N4CCCC4)n(CCF)c3C[C@H]2CN1C(=O)c1ccccc1"
  category: "inactive"
- compound: "COCCOC(=O)N1C(=O)[C@@]2(c3cc(C#Cc4ccc(OC)cc4)ccc31)[C@H](c1ccc(OCCO)cc1)N1[C@H](c3ccccc3)[C@H](c3ccccc3)OC(=O)[C@H]1[C@@H]2C(N)=O"
  category: "inactive"
- compound: "COC(=O)[C@@]1(Cc2ccc(F)cc2)[C@@H]2[C@@H](CC(=O)[C@H]2CC(=O)C(=O)N2CCCC2)CN1C(=O)c1ccccc1"
  category: "inactive"
- compound: "COc1cc(C(O)C2C=CC3C(=O)NC(=O)C3N2Nc2ccc(Cl)cc2Cl)cc(OC)c1OC (configuration not stated)"
  category: "inactive"
- compound: "COCCCNC(=O)[C@]1(Cc2ccccc2CN=[N+]=[N-])N=C(c2ccc(OCCCO)cc2)O[C@@H]1c1ccccc1CN=[N+]=[N-]"
  category: "inactive"
- compound: "COCC(=C=CC[C@@H](O)c1ccccc1OCCO)C[C@@H](O)c1ccccn1"
  category: "inactive"
- compound: "COC(=O)C(CC#Cc1ccc2c(c1)[C@]1(C(=O)N2)[C@H](C(=O)N2CCc3cc(OC)c(OC)cc3C2)[C@H]2C(=O)O[C@H](c3ccccc3)[C@H](c3ccccc3)N2[C@@H]1c1ccc(OCCO)cc1)C(=O)OC"
  category: "inactive"
